experimental details: Efflux ratio of apparent permeability in MDCK cells at 10 uM
Type: ADME, cell-based, Canis lupus familiaris
assay context: dog
reported property: efflux ratio at 10 µM

input_smiles=COc1cc(/C=C/C(=O)O)ccc1[C@@H]1c2ccc3[nH]ncc3c2C[C@@H](C)N1CC(C)(F)F reported_property="efflux ratio at 10 µM" measured=1.7
input_smiles=C[C@@H]1Cc2c(ccc3[nH]ncc23)[C@@H](c2c(F)cc(/C=C/C(=O)O)cc2F)N1CC(C)(C)F reported_property="efflux ratio at 10 µM" measured=0.6
input_smiles=C[C@@H]1Cc2c(ccc3[nH]ncc23)[C@@H](c2c(F)cc(/C=C/C(=O)O)cc2F)N1CC(C)(F)F reported_property="efflux ratio at 10 µM" measured=1.3

====

experimental details: Apparent permeability in human Caco2 cells at 10 uM
Type: ADME, cell-based
assay context: Caco-2
reported property: Papp at 10 µM (×10⁻⁶ cm/s)

input_smiles=C[C@@H]1Cc2c(ccc3[nH]ncc23)[C@@H](c2c(F)cc(/C=C/C(=O)O)cc2F)N1CC(C)(F)F measured=5.8
input_smiles=COc1cc(/C=C/C(=O)O)ccc1[C@@H]1c2ccc3[nH]ncc3c2C[C@@H](C)N1CC(C)(F)F measured=6.2
input_smiles=C[C@@H]1Cc2c(ccc3[nH]ncc23)[C@@H](c2c(F)cc(/C=C/C(=O)O)cc2F)N1CC(C)(C)F measured=6.9

====

experimental details: Solubility of the compound in phosphate buffer at pH 7.4 after 24 hrs
Assay type: physicochemical
reported property: solubility at 24 h

input_smiles=COc1cc(/C=C/C(=O)O)ccc1[C@@H]1c2ccc3[nH]ncc3c2C[C@@H](C)N1CC(C)(F)F reported_property="solubility at 24 h" measured="810 µM"
input_smiles=C[C@@H]1Cc2c(ccc3[nH]ncc23)[C@@H](c2c(F)cc(/C=C/C(=O)O)cc2F)N1CC(C)(F)F reported_property="solubility at 24 h" measured="760 µM"
input_smiles=C[C@@H]1Cc2c(ccc3[nH]ncc23)[C@@H](c2c(F)cc(/C=C/C(=O)O)cc2F)N1CC(C)(C)F reported_property="solubility at 24 h" measured="> 1000 µM"

====

tested target: Estrogen receptor (Homo sapiens)
Sequence (P03372 whole entry, the tested form may be a part): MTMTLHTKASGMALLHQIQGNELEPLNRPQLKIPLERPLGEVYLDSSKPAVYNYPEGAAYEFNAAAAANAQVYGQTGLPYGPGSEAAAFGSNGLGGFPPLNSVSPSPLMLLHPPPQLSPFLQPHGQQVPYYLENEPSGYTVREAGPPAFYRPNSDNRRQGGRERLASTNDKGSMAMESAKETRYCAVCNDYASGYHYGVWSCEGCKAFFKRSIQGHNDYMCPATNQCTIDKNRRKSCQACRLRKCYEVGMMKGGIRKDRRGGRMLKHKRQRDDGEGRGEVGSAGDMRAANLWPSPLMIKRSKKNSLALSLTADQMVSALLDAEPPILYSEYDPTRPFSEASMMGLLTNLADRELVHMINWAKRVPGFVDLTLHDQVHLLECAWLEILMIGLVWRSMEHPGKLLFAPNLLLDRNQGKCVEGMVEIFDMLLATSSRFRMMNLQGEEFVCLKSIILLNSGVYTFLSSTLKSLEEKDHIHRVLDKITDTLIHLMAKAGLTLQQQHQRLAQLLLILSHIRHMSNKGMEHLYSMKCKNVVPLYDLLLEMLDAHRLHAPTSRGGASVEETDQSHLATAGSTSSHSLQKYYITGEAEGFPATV
experimental details: Binding affinity to recombinant human GST-tagged ERalpha LBD expressed in baculovirus-infected insect cells by lantha screen assay
Below, each of the molecules is paired with its reported IC50 value.
reported property: IC50 (nM)

molecule="CC(C)CN1CCc2cccc3[nH]cc(c23)C1c1ccc(/C=C/C(=O)O)cc1 (stereo not drawn)" tested_target="Estrogen receptor (Homo sapiens)" unit_string=nM measured=39800
molecule=CC(C)CN1[C@H](c2ccc(/C=C/C(=O)O)cc2)c2ccc3[nH]ncc3c2CC1(C)C tested_target="Estrogen receptor (Homo sapiens)" unit_string=nM measured=20
molecule=CC(C)CN1CCc2c(ccc3[nH]ncc23)[C@H]1c1ccc(/C=C/C(=O)O)cc1 tested_target="Estrogen receptor (Homo sapiens)" unit_string=nM measured=25.1
molecule=C[C@@H]1Cc2c(ccc3[nH]ncc23)[C@@](C)(c2c(F)cc(/C=C/C(=O)O)cc2F)N1CC(C)(F)F tested_target="Estrogen receptor (Homo sapiens)" unit_string=nM measured=0.316
molecule=C[C@@H]1Cc2c(ccc3[nH]ncc23)[C@@H](c2c(F)cc(/C=C/C(=O)O)cc2F)N1CC(C)(F)F tested_target="Estrogen receptor (Homo sapiens)" unit_string=nM measured=0.398
molecule=COc1cc(/C=C/C(=O)O)ccc1[C@@H]1c2ccc3[nH]ncc3c2C[C@@H](C)N1CC(C)(F)F tested_target="Estrogen receptor (Homo sapiens)" unit_string=nM measured=1
molecule=COc1cc(/C=C/C(=O)O)c(F)cc1[C@@H]1c2ccc3[nH]ncc3c2C[C@@H](C)N1CC(C)(F)F tested_target="Estrogen receptor (Homo sapiens)" unit_string=nM measured=0.501
molecule=C[C@@H]1Cc2c(ccc3[nH]ncc23)[C@@H](c2c(F)cc(/C=C/C(=O)O)cc2F)N1CC(C)(C)F tested_target="Estrogen receptor (Homo sapiens)" unit_string=nM measured=0.316

====

experimental details: Volume of distribution at steady state in rat at 0.5 mg/kg, iv or 1 mg/kg, po
Assay type: ADME, organism-based
assay context: in vivo, read-out: Vdss
Below, each of the compounds is paired with its reported Vd value.
reported property: Vd (L/kg)

input_smiles=C[C@@H]1Cc2c(ccc3[nH]ncc23)[C@@H](c2c(F)cc(/C=C/C(=O)O)cc2F)N1CC(C)(C)F measured=1.6
input_smiles=COc1cc(/C=C/C(=O)O)ccc1[C@@H]1c2ccc3[nH]ncc3c2C[C@@H](C)N1CC(C)(F)F measured=1
input_smiles=C[C@@H]1Cc2c(ccc3[nH]ncc23)[C@@H](c2c(F)cc(/C=C/C(=O)O)cc2F)N1CC(C)(F)F measured=1.6

====

Below, each of the compounds is paired with its reported clearance value.
experimental details: Clearance in dog at 0.5 mg/kg, iv or 1 mg/kg, po
Type: ADME, organism-based, Canis lupus familiaris
assay context: in vivo
reported property: clearance

input_smiles=C[C@@H]1Cc2c(ccc3[nH]ncc23)[C@@H](c2c(F)cc(/C=C/C(=O)O)cc2F)N1CC(C)(F)F reported_property=clearance measured="5.4 mL/min/kg"
input_smiles=COc1cc(/C=C/C(=O)O)ccc1[C@@H]1c2ccc3[nH]ncc3c2C[C@@H](C)N1CC(C)(F)F reported_property=clearance measured="2.8 mL/min/kg"
input_smiles=C[C@@H]1Cc2c(ccc3[nH]ncc23)[C@@H](c2c(F)cc(/C=C/C(=O)O)cc2F)N1CC(C)(C)F reported_property=clearance measured="5.9 mL/min/kg"

====

experimental details: Intrinsic clearance in rat hepatocytes assessed per million cells
Type: ADME, cell-based, Hepatocyte
assay context: read-out: CLH
Given measured hepatocyte CLint, output Y if it is greater than or equal to 20 µL/min/1e6 cells and N if not.

input_smiles=C[C@@H]1Cc2c(ccc3[nH]ncc23)[C@@H](c2c(F)cc(/C=C/C(=O)O)cc2F)N1CC(C)(F)F answer_label=N
input_smiles=COc1cc(/C=C/C(=O)O)c(F)cc1[C@@H]1c2ccc3[nH]ncc3c2C[C@@H](C)N1CC(C)(F)F answer_label=Y
input_smiles=CC(C)CN1CCc2c(ccc3[nH]ncc23)[C@H]1c1ccc(/C=C/C(=O)O)cc1 answer_label=N
input_smiles=CC(C)CN1[C@H](c2c(F)cc(/C=C/C(=O)O)cc2F)c2ccc3[nH]ncc3c2C[C@H]1C answer_label=N

====

Below, each of the compounds is paired with its reported hepatocyte CLint value.
experimental details: Intrinsic clearance in rat hepatocytes assessed per million cells
Format: ADME, cell-based, Hepatocyte
assay context: read-out: CLH
reported property: hepatocyte CLint (µL/min/1e6 cells)

compound=COc1cc(/C=C/C(=O)O)ccc1[C@@H]1c2ccc3[nH]ncc3c2C[C@@H](C)N1CC(C)(C)F reported_property="hepatocyte CLint" measured=17
compound=C[C@@H]1Cc2c(ccc3[nH]ncc23)[C@@H](c2c(F)cc(/C=C/C(=O)O)cc2F)N1CC(C)(C)F reported_property="hepatocyte CLint" measured=26
compound=C[C@@H]1Cc2c(ccc3[nH]ncc23)[C@@H](c2ccc(/C=C/C(=O)O)cc2)N1CC(C)(C)F reported_property="hepatocyte CLint" measured=8
compound=COc1cc(/C=C/C(=O)O)cc(F)c1[C@@H]1c2ccc3[nH]ncc3c2C[C@@H](C)N1CC(C)(F)F reported_property="hepatocyte CLint" measured=32
compound=COc1c([C@@H]2c3ccc4[nH]ncc4c3C[C@@H](C)N2CC(C)(F)F)ccc(/C=C/C(=O)O)c1F reported_property="hepatocyte CLint" measured=17
compound=C[C@@H]1Cc2c(ccc3[nH]ncc23)[C@@](C)(c2c(F)cc(/C=C/C(=O)O)cc2F)N1CC(C)(F)F reported_property="hepatocyte CLint" measured=20
compound=C[C@@H]1Cc2c(ccc3[nH]ncc23)[C@@](C)(c2c(F)cc(/C=C/C(=O)O)cc2F)N1CC(C)(C)F reported_property="hepatocyte CLint" measured=12
compound="CC(C)CN1CCc2cccc3[nH]cc(c23)C1c1ccc(/C=C/C(=O)O)cc1 (stereo not drawn)" reported_property="hepatocyte CLint" measured=10

====

experimental details: Apparent permeability in MDCK cells at 10 uM
Type: ADME, cell-based, Canis lupus familiaris
assay context: dog
Below, each of the molecules is paired with its reported Papp at 10 µM value.
reported property: Papp at 10 µM

input_smiles=C[C@@H]1Cc2c(ccc3[nH]ncc23)[C@@H](c2c(F)cc(/C=C/C(=O)O)cc2F)N1CC(C)(F)F reported_property="Papp at 10 µM" measured="10 ×10⁻⁶ cm/s"
input_smiles=C[C@@H]1Cc2c(ccc3[nH]ncc23)[C@@H](c2c(F)cc(/C=C/C(=O)O)cc2F)N1CC(C)(C)F reported_property="Papp at 10 µM" measured="11 ×10⁻⁶ cm/s"
input_smiles=COc1cc(/C=C/C(=O)O)ccc1[C@@H]1c2ccc3[nH]ncc3c2C[C@@H](C)N1CC(C)(F)F reported_property="Papp at 10 µM" measured="8.4 ×10⁻⁶ cm/s"
